Below, each of the compounds is paired with its reported log10 IC50 value.
Biological target: purified LasB (Pseudomonas aeruginosa, UniProt P14756)
Construct: The mature LasB protein is a 33 kDa metalloprotease, which is secreted from P. aeruginosa; host or cells: P. aeruginosa PAO1 (native secretion, culture supernatant)
Sequence (P14756 198-498): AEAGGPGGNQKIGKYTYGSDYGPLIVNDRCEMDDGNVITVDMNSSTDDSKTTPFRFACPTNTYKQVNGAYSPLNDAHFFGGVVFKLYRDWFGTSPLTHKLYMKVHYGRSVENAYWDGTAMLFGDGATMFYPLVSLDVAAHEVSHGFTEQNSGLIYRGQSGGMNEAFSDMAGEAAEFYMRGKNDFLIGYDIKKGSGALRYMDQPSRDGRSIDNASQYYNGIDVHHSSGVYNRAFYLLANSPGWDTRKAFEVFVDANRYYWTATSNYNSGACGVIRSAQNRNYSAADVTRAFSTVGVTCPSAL
Test: LasB inhibition, fluorimetric Abz-AGLA-Nba hydrolysis assay with purified LasB
Assay type: biochemical
Log10 applied to IC50; unit prior to transform: nM.

Examples from the recorded data:
{"smilesData": "COc1cc2sc(CNC(=O)C3(CC(=O)O)Cc4cc(F)c(F)cc4C3)nc2cc1OCC1CC[N+](C)(C)CC1", "log10 IC50": 1.95}
{"smilesData": "C[N+]1(C)CCN(c2ccc3nc(CNC(=O)C4(CC(=O)O)Cc5ccccc5C4)sc3c2)CC1", "log10 IC50": 3.13}

# input compound: O=C(O)CC1(C(=O)NCc2nc3cc(Cl)ccc3s2)Cc2ccccc2C1 ; wanted: its log10 IC50
2.54

# input compound: O=C(O)CC1(C(=O)NCc2nc3ccccc3s2)Cc2cc(F)c(F)cc2C1 ; wanted: its log10 IC50
2.15

# input compound: COc1cc2sc(CNC(=O)C3(CC(=O)O)Cc4ccccc4C3)nc2cc1OCCC[N+](C)(C)C ; wanted: its log10 IC50
2.11

# input compound: COc1cc2sc(CNC(=O)C3(CC(=O)O)Cc4ccccc4C3)nc2cc1OCC1CC[N+](C)(C)CC1 ; wanted: its log10 IC50
2.11
